Molecular target: RecQ-WH (Escherichia coli)
Construct: coding for residues 408– 523 of E. coli RecQ; made in house; host or cells: E. coli BL21(DE3)
Sequence (P15043 408-523): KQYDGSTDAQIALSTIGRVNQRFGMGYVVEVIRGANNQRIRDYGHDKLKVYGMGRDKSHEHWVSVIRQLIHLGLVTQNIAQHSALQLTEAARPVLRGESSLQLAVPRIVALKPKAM
Assay: Competition pull-down with native ligand SSB-Ct8
Format: binding, E. coli
Settings: H14 library; competitor peptide 200 µM; read-out: Surface mapping KD (apparent), competition
measurement type: pKd
The quantity pKd is defined as the negative base-10 logarithm of the molar concentration.

[[record]]
structure_smiles_string = "NC(=O)[C@H]1CCCC[C@@H]1NC(=O)C[C@H](Cc1ccc(O)cc1)NC(=O)[C@H]1CCCC[C@@H]1NC(=O)[C@H]1CCCC[C@@H]1NC(=O)C[C@H](Cc1c[nH]c2ccccc12)NC(=O)[C@H]1CCCC[C@@H]1N"
numeric_value = 3.71


Checklist item: pKd tested on RecQ-WH (Escherichia coli), entry `CC(C)[C@@H](CC(=O)N[C@H]1CCCC[C@@H]1C(N)=O)NC(=O)[C@H]1CCCC[C@@H]1NC(=O)[C@H]1CCCC[C@@H]1NC(=O)C[C@H](Cc1c[nH]c2ccccc12)NC(=O)[C@H]1CCCC[C@@H]1N` , value?
3.57

Checklist item: pKd tested on RecQ-WH (Escherichia coli), entry `CC[C@H](C)[C@@H](CC(=O)N[C@H]1CCCC[C@@H]1C(N)=O)NC(=O)[C@H]1CCCC[C@@H]1NC(=O)[C@H]1CCCC[C@@H]1NC(=O)C[C@H](CC(C)C)NC(=O)[C@H]1CCCC[C@@H]1N` , value?
3.45

Checklist item: pKd tested on RecQ-WH (Escherichia coli), entry `NC(=O)[C@H]1CCCC[C@@H]1NC(=O)C[C@H](Cc1ccccc1)NC(=O)[C@H]1CCCC[C@@H]1NC(=O)[C@H]1CCCC[C@@H]1NC(=O)C[C@H](Cc1c[nH]c2ccccc12)NC(=O)[C@H]1CCCC[C@@H]1N` , value?
3.97

Checklist item: pKd tested on RecQ-WH (Escherichia coli), entry `C[C@@H](CC(=O)N[C@H]1CCCC[C@@H]1C(=O)N[C@H]1CCCC[C@@H]1C(=O)N[C@H](CC(=O)N[C@H]1CCCC[C@@H]1C(N)=O)Cc1ccccc1)NC(=O)[C@H]1CCCC[C@@H]1N` , value?
3.34

Checklist item: pKd tested on RecQ-WH (Escherichia coli), entry `NC(=O)CC[C@@H](CC(=O)N[C@H]1CCCC[C@@H]1C(=O)N[C@H]1CCCC[C@@H]1C(=O)N[C@H](CC(=O)N[C@H]1CCCC[C@@H]1C(N)=O)Cc1c[nH]c2ccccc12)NC(=O)[C@H]1CCCC[C@@H]1N` , value?
3.47
